Tested on: HCT-116 colon
METHOD SUMMARY: NCI-60 one-dose screen, 48 h
RUN PARAMETERS: 10 µM
About 83,000 compounds went through this panel and 20% of them were active in at least one assay; those are over-represented in the sample as a whole. Calls of active or inactive are those of the source. The calls were made as follows: active = growth percent below 10; inactive = the rest.
Outcomes you can answer with include only these: active, inactive

Challenge: In this assay, the call recorded for NC1CCc2cc(O)c(O)cc2C1 (stereo not drawn) was what?
Response given: inactive

Challenge: How was C=C1[C@@H](C)C2[C@H](Cc3ccccc3)NC(=O)[C@]23[C@H](OC(C)=O)/C=C/[C@@](C)(O)C(=O)[C@@H](C)C/C=C/[C@H]3[C@@H]1O (stereo partly drawn) classified in this test?
Response given: inactive

Challenge: What call does the record list for "CC(=O)O[C@@H]1C[C@H]2O[C@@H]3C=C(C)CC[C@]3(C)[C@]1(C)[C@]21CO1" ?
Response given: active
